Please go through the items and note down their pIC50.
Biological target: Serine/threonine-protein kinase TBK1 (Homo sapiens, UniProt Q9UHD2)
Sequence (Q9UHD2 whole entry): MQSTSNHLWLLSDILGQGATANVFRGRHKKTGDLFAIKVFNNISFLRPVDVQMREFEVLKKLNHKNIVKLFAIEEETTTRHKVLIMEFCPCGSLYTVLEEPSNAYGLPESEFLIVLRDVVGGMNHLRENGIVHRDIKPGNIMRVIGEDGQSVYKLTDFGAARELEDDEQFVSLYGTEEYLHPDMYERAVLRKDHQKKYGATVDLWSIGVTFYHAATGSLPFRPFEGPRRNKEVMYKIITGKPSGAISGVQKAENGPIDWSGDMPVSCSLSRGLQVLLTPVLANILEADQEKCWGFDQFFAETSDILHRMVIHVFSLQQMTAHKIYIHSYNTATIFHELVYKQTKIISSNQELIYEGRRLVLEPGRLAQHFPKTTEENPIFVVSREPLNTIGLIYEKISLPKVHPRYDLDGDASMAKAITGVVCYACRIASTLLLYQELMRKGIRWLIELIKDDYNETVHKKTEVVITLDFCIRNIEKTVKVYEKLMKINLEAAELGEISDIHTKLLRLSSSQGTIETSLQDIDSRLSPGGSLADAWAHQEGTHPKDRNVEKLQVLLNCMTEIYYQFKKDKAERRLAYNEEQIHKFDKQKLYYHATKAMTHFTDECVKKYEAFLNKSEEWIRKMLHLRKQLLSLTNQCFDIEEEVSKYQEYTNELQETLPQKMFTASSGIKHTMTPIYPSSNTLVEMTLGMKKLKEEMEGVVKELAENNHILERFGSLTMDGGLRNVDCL
Test: Inhibition of recombinant full length human N-terminal His-tagged TBK1 using biotin-labelled Ahx-GDEDFSSFAEPG peptide as substrate preincubated with enzyme for 15 mins followed by substrate addition and further incubated for 30 mins in presence of 1 mM of ATP by TR-FRET assay
pIC50: −log10 of the molar value.

Guide cases for pIC50, answers given:
O=C(CC(F)(F)F)N1CCN(Cc2ccnc(Nc3nc4ccc(-c5nc(C6CC6)no5)cc4[nH]3)c2)CC1: < 4.70
Cc1noc(-c2ccc3nc(Nc4cc(C(=O)N5CCN(C(=O)CC(F)(F)F)CC5)ccn4)[nH]c3c2)n1: < 4.70

# pIC50 (compound: Cc1noc(-c2ccc3nc(Nc4cc(CN5CCN(C(=O)OC(C)(C)C)CC5)ccn4)[nH]c3c2)n1 ) is < 4.70
